# System: T1, CD83-His (ectodomain of human CD83 with 6x Histidine tag) (human, UniProt Q01151 20-144)
# T1 construct: extracellular domain; Expressed in mammalian cells; also called hCD83-His; recombinant CD83-His; not shown: 6x Histidine tag
# T1 sequence (looked up): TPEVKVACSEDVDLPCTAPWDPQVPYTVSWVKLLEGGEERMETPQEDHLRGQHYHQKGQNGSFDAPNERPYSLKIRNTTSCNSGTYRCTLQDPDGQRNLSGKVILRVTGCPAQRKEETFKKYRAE
# Test description: relative binding of light chain shuffled clones against 1F7; CD83 construct not given
Quantity kind: binding result

These solved cases illustrate the format of a correct answer.
Binder	binding result
hFab4.3 (Fab, V domains shown, Light chain shuffled variant of 1F7) VH: EVQLVQSGGAVVQPGRSLRLSCAASGFTFSTYGMHWVRQAPGKGLEWVAAVSYDGSNKYYADFVKGRFTISRDNPKNTLYLQMNSLRADDTAVYYCARRGGLDIWGQGTTVTVSS VL: MTQSPLSLPVTLGQPASISCRSSQSLIHSDGNTYLDWFQQRPGQSPRRLIYKVSNRDSGVPDRFSGSGSGTDFTLRISRVEAEDIGVYYCMQATHWPRTFGQGTKVEIKR	binds
hFab4.5 (Fab, V domains shown, Light chain shuffled variant of 1F7, expressed as hFab in the E. coli periplasm) VH: EVQLVQSGGAVVQPGRSLRLSCAASGFTFSTYGMHWVRQAPGKGLEWVAAVSYDGSNKYYADFVKGRFTISRDNPKNTLYLQMNSLRADDTAVYYCARRGGLDIWGQGTTVTVSS VL: LTQSPLSLPVTLGQPASISCKSSQSLVDSDGNTYLNWFQQRPGQSPRRLIYKVSNRDSGVPDRFSGSGSGTDFTLKISRVEAEDVGVYYCMQGTHWPRTFGQGTKVEIKR	binds
hFab4.18 (Fab, V domains shown, Light chain shuffled variant of 1F7) VH: EVQLVQSGGAVVQPGRSLRLSCAASGFTFSTYGMHWVRQAPGKGLEWVAAVSYDGSNKYYADFVKGRFTISRDNPKNTLYLQMNSLRADDTAVYYCARRGGLDIWGQGTTVTVSS VL: LTQSPLSLPVTLGQPASISCKSNQSLVHSDGNTYLNWFQQRPGQSPRRLIYKVSNRDSGVPDRFSGSGSGTDFTLKINRVEAEDVGVYYCMQGTQWPRTFGQGTKLDIKR	binds
hFab4.7 (Fab, V domains shown, Light chain shuffled variant of 1F7) VH: EVQLVQSGGAVVQPGRSLRLSCAASGFTFSTYGMHWVRQAPGKGLEWVAAVSYDGSNKYYADFVKGRFTISRDNPKNTLYLQMNSLRADDTAVYYCARRGGLDIWGQGTTVTVSS VL: MTQSPLSLPVTLGQPASISCRSSQSLVHSDGNMYLNWFQQRPGQSPRRLIYKVSNRDSGVPDRFSGSGSGTDFTLKISRVEAEDVGVYYCMQATQPTWTFGQGTKLEIKR	binds

Q. Provide measured binding result value, entry: hFab4.8 (Fab, V domains shown, Light chain shuffled variant of 1F7, expressed as hFab in the E. coli periplasm) VH: EVQLVQSGGAVVQPGRSLRLSCAASGFTFSTYGMHWVRQAPGKGLEWVAAVSYDGSNKYYADFVKGRFTISRDNPKNTLYLQMNSLRADDTAVYYCARRGGLDIWGQGTTVTVSS VL: MTQSPSSLSASVGDRVTITCQASQDISNYLNWYQQKPGKAPKLLIYDASNLETGVPSRFSGSGSGTDFTFTISSLQPDDFATYYCQQTYSWPRTFGQGTKLEIKR
A. binds

Q. Provide measured binding result value, entry: hFab4.1 (Fab, V domains shown, Light chain shuffled variant of 1F7) VH: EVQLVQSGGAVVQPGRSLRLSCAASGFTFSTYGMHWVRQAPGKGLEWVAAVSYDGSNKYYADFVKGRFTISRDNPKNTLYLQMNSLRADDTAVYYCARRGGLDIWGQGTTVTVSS VL: VTQPPSASGTPGQRVTISCSGSSSNIGTNPVNWYQQLPGTAPKLLIYTTDQRPSGVPDRFSGSKSGTSASLAISGLQSEDEADYYCAAWDDSLSGLYVFGTGTKVTVLG
A. binds
